- Test system: NADH levels in yeast
- measurement-notes: yeast NADH autofluorescence assay
- Format: cell-based, Saccharomyces cerevisiae
- measurement-context: Saccharomyces cerevisiae, read-out: Concentration of known stimulators of NADH oxidation to increase NADH consumption by 50% in the yeast system
readout-label: EC50 (µM)
The response must be a number in µM with no trailing unit.

GET /value?item= "O=C(O)CC(=O)C(=O)O" &field=EC50 returns 20
